All values here come from ChEMBL document CHEMBL4007393.

# method.notes: Kinetic solubility of the compound in water after 30 mins by nephelometric analysis
# Assay type: physicochemical
# condition.set: read-out: Kinetic_solubility
outcome.measure: solubility kinetic at 0.5 h

# annotated cases, reported solubility kinetic at 0.5 h shown
[
  {
    "compound": "c1cc([C@H]2CC[C@]3(CC2)OOC2(O3)C3CC4CC(C3)CC2C4)ccc1OCCOC1CCNCC1 (stereo partly specified)",
    "solubility kinetic at 0.5 h": "50 to 100 µg/mL"
  },
  {
    "compound": "c1cc([C@H]2CC[C@]3(CC2)OOC2(O3)C3CC4CC(C3)CC2C4)ccc1OCCCN1CCOCC1 (stereo partly specified)",
    "solubility kinetic at 0.5 h": "1.6 to 3.1 µg/mL"
  },
  {
    "compound": "N[C@H]1CC[C@@H](Oc2ccc([C@H]3CC[C@]4(CC3)OOC3(O4)C4CC5CC(C4)CC3C5)cc2)CC1 (stereo partly specified)",
    "solubility kinetic at 0.5 h": "25 to 50 µg/mL"
  },
  {
    "compound": "c1cc([C@H]2CC[C@]3(CC2)OOC2(O3)C3CC4CC(C3)CC2C4)ccc1OCCN1CCC1 (stereo partly specified)",
    "solubility kinetic at 0.5 h": "> 100 µg/mL"
  },
  {
    "compound": "c1cc([C@H]2CC[C@]3(CC2)OOC2(O3)C3CC4CC(C3)CC2C4)ccc1OCCN1CC2(COC2)C1 (stereo partly specified)",
    "solubility kinetic at 0.5 h": "50 to 100 µg/mL"
  },
  {
    "compound": "c1cc([C@H]2CC[C@]3(CC2)OOC2(O3)C3CC4CC(C3)CC2C4)ccc1OC1CCNCC1 (stereo partly specified)",
    "solubility kinetic at 0.5 h": "> 100 µg/mL"
  }
]

Param item = O=C(c1ccc([C@H]2CC[C@]3(CC2)OOC2(O3)C3CC4CC(C3)CC2C4)cc1)N1CCNCC1 (stereo partly specified) ; retrieve measured solubility kinetic at 0.5 h.
> 100 µg/mL

Okay, and c1cc([C@H]2CC[C@]3(CC2)OOC2(O3)C3CC4CC(C3)CC2C4)ccc1OCCN1CCCOCC1 (stereo partly specified) ?
3.1 to 6.3 µg/mL

---

# method.notes: AUC (0 to infinity) in FVB mouse at 30 mg/kg, administered through oral gavage as single dose by LC-MS analysis
# Type: ADME, organism-based
# Parameters: dose 30 mg/kg, time infinity, route oral
# condition.set: in vivo
outcome.measure: AUC(0-inf) (µM·h)
Numbers only here, please. The scale is µM·h.

These recorded examples may help you get a feel for the data.
[
  {
    "compound": "c1cc([C@H]2CC[C@]3(CC2)OO[C@]2(O3)C3CC4CC(C3)CC2C4)ccc1OCCN1CCOCC1 [ARTEFENOMEL]",
    "measured": 38.7
  },
  {
    "compound": "CC(C)(O)CNCCCOc1ccc([C@H]2CC[C@]3(CC2)OOC2(O3)C3CC4CC(C3)CC2C4)cc1 (stereo partly drawn)",
    "measured": 22.8
  },
  {
    "compound": "NCCCCOc1ccc([C@H]2CC[C@]3(CC2)OOC2(O3)C3CC4CC(C3)CC2C4)cc1 (stereo partly drawn)",
    "measured": 11
  },
  {
    "compound": "CC(C)(N)CCOc1ccc([C@H]2CC[C@]3(CC2)OOC2(O3)C3CC4CC(C3)CC2C4)cc1 (stereo partly drawn)",
    "measured": 27.8
  },
  {
    "compound": "c1cc([C@H]2CC[C@]3(CC2)OOC2(O3)C3CC4CC(C3)CC2C4)ccc1OCCN1CCNCC1 (stereo partly drawn)",
    "measured": 16.8
  },
  {
    "compound": "c1cc([C@H]2CC[C@]3(CC2)OOC2(O3)C3CC4CC(C3)CC2C4)ccc1OCCN1CCCOCC1 (stereo partly drawn)",
    "measured": 16.8
  }
]

State the recorded AUC(0-inf) for this entry: CC(C)(CN)Oc1ccc([C@H]2CC[C@]3(CC2)OOC2(O3)C3CC4CC(C3)CC2C4)cc1 (stereo partly drawn)
11.3

Try this compound too: NCCOc1ccc([C@H]2CC[C@]3(CC2)OOC2(O3)C3CC4CC(C3)CC2C4)cc1 (stereo partly drawn)
3.42

Please do the same for CC1(C)CC(O)(COc2ccc([C@H]3CC[C@]4(CC3)OOC3(O4)C4CC5CC(C4)CC3C5)cc2)CC(C)(C)N1 (stereo partly drawn) as well.
32.9

Record: c1cc([C@H]2CC[C@]3(CC2)OOC2(O3)C3CC4CC(C3)CC2C4)ccc1OCCC1CCNCC1 (stereo partly drawn)
34.1
